Hey, just so you know, these numbers are from the supplement of paper PMC10567573.

B1: ALDH8A1 (parent)
chain: WSSRSPQERSRVLNQVADLLEQSL

Variants of: B1
Experiment: protein stability index of a GFP-peptide fusion (GPS, HEK-293T) (PSI 1-6); higher = more stable;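 note: lentivirally expressed fusions sorted by FACS into six bins by GFP to DsRed ratio, PSI derived from sequencing read proportions per bin multiplied by bin number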
Conditions: c terminus: a fixed tail appended
Recorded measurements of protein stability index, one per entry
Reply: number alone, nothing else.

Reference set, count: 5
1. L20A | 3.59
2. L19M | 2.52
3. L20E | 4.43
4. S2M | 2.51
5. L20C | 3.45

Inquiry: Sample `L20S` — what was its protein stability index?
Reply text: 3.96

Inquiry: Follow-up item: `S2I`
Reply text: 1.78

Inquiry: Follow-up item: `S23H`
Reply text: 2.77
